These entries and their values trace back to patent US20240226126A1.

System: V12KC (primary keratinocytes transduced with V12 Rac1)
Assay: Proliferation of V12 Rac1 transduced primary keratinocytes vs LacZ control
Type: cell-based
Settings: Homo sapiens, Keratinocyte
parameter_measured: pIC50
Kindly note that pIC50 refers to -log10 of the concentration in mol/L and answer with the value alone.

*Q* Specify measured pIC50 for NC(=NCc1ccccc1)NC(=O)c1nc(Cl)c(N)nc1N .
*A* 6.00
